Reference source for all entries: PubChem BioAssay AID2060496

Consider the following compounds; for each one, report its viability, T/C.
# System: 276233-004-R-J1-PDC complex spheroid viability
# measurement_protocol: Anticancer human tumor 276233-004-R-J1-PDC patient-derived colon adenocarcinoma cell line growth inhibition [GQUAD]
# details: second compound 0.0316 µM; first compound 10 µM; stronger effect = lower value
# Text: DNA G-quadruplex Stabilizer Agents in Combinations in Complex Spheroids A high-throughput screen of multi-cell type tumor spheroids was designed to identify active combinations of DNA G-quadruplex stabilizer agents and targeted small molecules. […] Compounds. […] If the clinical Cmax for an agent had not been determined, the highest concentration tested was 10 microM. […]

Some solved cases for reference:
[[record]]
compound = "CC1COCCN1c1cc(-c2ccnn2C)c2ccnc(-c3ccn[nH]3)c2n1 (stereo unspecified) + Cc1cnc(CNC(=O)c2c(=O)c3ccc(N4CCCN(C)CC4)nc3n3c2sc2ccccc23)cn1"
data_value = "42.5%"

[[record]]
compound = "C#Cc1c(F)ccc2cc(O)cc(-c3ncc4c(N5CC6CCC(C5)N6)nc(OCC56CCCN5CC(F)C6)nc4c3F)c12 (stereo unspecified) + Cc1[nH]c2ccc(F)cc2c1-c1nc2c3cccnc3c3ncccc3c2[nH]1"
data_value = "51.2%"

[[record]]
compound = "CC1COCCN1c1cc(C2(O)CC3CCC(C2)O3)c2cnn(-c3ccn[nH]3)c2n1 (stereo unspecified) + Cc1cnc(CNC(=O)c2c(=O)c3ccc(N4CCCN(C)CC4)nc3n3c2sc2ccccc23)cn1"
data_value = "40.3%"

[[record]]
compound = "O=c1[nH]cc(F)c(=O)[nH]1 + Cc1cnc(CNC(=O)c2c(=O)c3ccc(N4CCCN(C)CC4)nc3n3c2sc2ccccc23)cn1"
data_value = "97.5%"

[[record]]
compound = "O=C(c1cc(Cc2n[nH]c(=O)c3ccccc23)ccc1F)N1CCN(C(=O)C2CC2)CC1 + Cc1cnc(CNC(=O)c2c(=O)c3ccc(N4CCCN(C)CC4)nc3n3c2sc2ccccc23)cn1"
data_value = "91.6%"


Consider now this further compound.
Task: Look up viability, T/C of Cc1cccc(N(C)C(=O)C2C(O)CCN2c2nc(C)cc(C(F)(F)F)c2C#N)c1 (stereo unspecified) + Cc1cnc(CNC(=O)c2c(=O)c3ccc(N4CCCN(C)CC4)nc3n3c2sc2ccccc23)cn1 and report it.
Result: 92.8%

---

# Test system: 276233-004-R-J1-PDC complex spheroid viability
# measurement_protocol: Anticancer human tumor 276233-004-R-J1-PDC cell line growth inhibition [GQUAD];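 note: spheroids exposed to drugs for seven days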
# details: curve of first compound; second compound 3.16 µM
pIC50: −log10 of the molar value.
readout_type: pIC50

Some solved cases for reference:
[[record]]
molecule = "CC(C)n1c(=O)n(C)c2cnc3cc(F)c(-c4ccc(OCCCN5CCCCC5)nc4)cc3c21 + Cc1[nH]c2ccc(F)cc2c1-c1nc2c3cccnc3c3ncccc3c2[nH]1"
data_value = 5.49

[[record]]
molecule = "CCc1c2c(nc3ccc(O)cc13)-c1cc3c(c(=O)n1C2)COC(=O)[C@]3(O)CC + Cc1[nH]c2ccc(F)cc2c1-c1nc2c3cccnc3c3ncccc3c2[nH]1"
data_value = "< 6.50"

[[record]]
molecule = "CCc1c2c(nc3ccc(O)cc13)-c1cc3c(c(=O)n1C2)COC(=O)[C@]3(O)CC + CN(C)c1ccc(Nc2c3ccc(NC(=O)CCN4CCCC4)cc3nc3cc(NC(=O)CCN4CCCC4)ccc23)cc1"
data_value = "> 9.00"

[[record]]
molecule = "O=C(NO)c1cnc(N2CCN(S(=O)(=O)c3ccc4ccccc4c3)CC2)nc1 + Cc1cnc(CNC(=O)c2c(=O)c3ccc(N4CCCN(C)CC4)nc3n3c2sc2ccccc23)cn1"
data_value = 6.84

[[record]]
molecule = "COc1cc(C2c3cc4c(cc3C(OC3OC5COC(C)OC5C(O)C3O)C3COC(=O)C23)OCO4)cc(OC)c1O (stereo not drawn) + Cc1cnc(CNC(=O)c2c(=O)c3ccc(N4CCCN(C)CC4)nc3n3c2sc2ccccc23)cn1"
data_value = "< 5.00"

[[record]]
molecule = "CC1COCCN1c1cc(C2(O)CC3CCC(C2)O3)c2cnn(-c3ccn[nH]3)c2n1 (stereo not drawn) + Cc1[nH]c2ccc(F)cc2c1-c1nc2c3cccnc3c3ncccc3c2[nH]1"
data_value = 7.15

[[record]]
molecule = "COc1ncnc(C2CC2)c1-c1ncc2cnn(Cc3ccc(-c4nc(C(F)(F)F)cn4C(C)C)cc3)c2n1 + Cc1cnc(CNC(=O)c2c(=O)c3ccc(N4CCCN(C)CC4)nc3n3c2sc2ccccc23)cn1"
data_value = "< 5.00"


Consider now this further molecule.
Task: System 276233-004-R-J1-PDC complex spheroid viability. Read-out pIC50. Item COc1ncnc(C2CC2)c1-c1ncc2cnn(Cc3ccc(-c4nc(C(F)(F)F)cn4C(C)C)cc3)c2n1 + CN(C)c1ccc(Nc2c3ccc(NC(=O)CCN4CCCC4)cc3nc3cc(NC(=O)CCN4CCCC4)ccc23)cc1 . Report value.
Result: > 7.50
